Target: T1, ECF28_1040
T1 chain: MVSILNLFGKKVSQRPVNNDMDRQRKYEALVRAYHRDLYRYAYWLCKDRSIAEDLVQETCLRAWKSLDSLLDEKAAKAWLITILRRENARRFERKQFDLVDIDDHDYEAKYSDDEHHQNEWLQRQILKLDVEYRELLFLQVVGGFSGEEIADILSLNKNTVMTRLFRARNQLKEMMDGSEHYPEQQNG
Parameter: fold repression. Scope: all listed entries.
// no unit string in output, number only

Qu. // query fold repression value for entry AS27_1331 (protein) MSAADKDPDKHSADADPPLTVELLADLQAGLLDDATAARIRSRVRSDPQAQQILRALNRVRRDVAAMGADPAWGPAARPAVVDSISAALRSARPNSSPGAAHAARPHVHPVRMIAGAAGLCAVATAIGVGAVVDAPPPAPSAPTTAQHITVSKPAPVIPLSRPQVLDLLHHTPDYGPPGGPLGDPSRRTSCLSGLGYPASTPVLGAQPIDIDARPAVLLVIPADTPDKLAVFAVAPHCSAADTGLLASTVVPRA
Ans. 1.5

More entries:
Qu. # query: fold repression of entry AS03_1198 (protein) MDKDFDFDNIGKRTPYRTPDNFFEETQRKILERTVDEQRKKRRLKRIIPTVIAVAAVLAGILFTPSLRYMNTDTPSASNILAVDKNNVTTDPVDKWIKELSDEELEELVSFSENDIFLN
Ans. 1.23

Qu. Look up fold repression for this binder: AS31_34 (protein) MNKEKLSDHLKSEWKKIDQTANPSIPNQKELLHQLSQMKAEYRKKLLQEIILFVFCALMVVSAAILAFTQAPAVFIVLQVCVLAVLPILIAAEKKRHLGECEVKRG
Ans. 2.22
